assay: qHTS assay to identify small molecule antagonists of the retinoid-related orphan receptor gamma (ROR-gamma) signaling pathway - cell viability counter screen (AID 1159520); conditions: Tet-on RORgamma CHO cells viability, ATP luminescence, 16 h; series mostly up to 92.4 µM; further: nearly all actives have a fitted effect of over 50% in size
Records with an inconclusive call do not appear. Calls of active or inactive are those of the source. The call rests on the fitted dose curve; in most records, active means well fitted cell-killing curve with a large enough effect in the repeat runs; inconclusive means weak or mixed curves, or effect the other way; inactive means no such curve, though single readings can be large or run the other way.
Reply using exactly one outcome from Y = active, N = inactive

IN: Called result for COc1cc(N)c(Cl)cc1C(=O)NC1CN2CCC1CC2 (stereo unspecified)
OUT: N

IN: # iterate: CC(C)C1CCC(Cc2ccc(Cl)cc2)C1(O)Cn1cncn1 (stereo unspecified)
OUT: Y

IN: Another molecule: CC1(C)C(/C=C(\Cl)C(F)(F)F)C1C(=O)OC(C#N)c1cccc(Oc2ccccc2)c1 (stereo unspecified)
OUT: N

IN: One more molecule: FC(F)(F)c1cccc(C2=CCN(CCc3ccc4ccccc4c3)CC2)c1
OUT: N

IN: Try the molecule c1ccc2c(c1)[nH]c1cnccc12
OUT: N

IN: Record: CCC(C)c1cc(C(C)(C)C)cc(-n2nc3ccccc3n2)c1O (stereo unspecified)
OUT: N

IN: Please give the result for FC(Cl)(Cl)Cl too.
OUT: N

IN: # repeat for Nc1c(Oc2ccccc2)cc(O)c2c1C(=O)c1ccccc1C2=O
OUT: N

IN: // same read-out, input: O=[N+]([O-])c1cc([N+](=O)[O-])c2ccccc2c1
OUT: N

IN: Another: Clc1ccc(CSC(Cn2ccnc2)c2ccc(Cl)cc2Cl)cc1 (stereo unspecified)
OUT: N

IN: Can you handle COP(=O)(OC)SCn1c(=O)oc2cc(Cl)cnc21 next?
OUT: N

IN: Subsequent entry: CC(=O)[O-].CC(=O)[O-].[Hg+2]
OUT: Y

IN: // same read-out, input: CC(Cl)CN(C)C (stereo unspecified)
OUT: N

IN: Also N#C/C=C/C#N , if possible.
OUT: N

IN: Same question for Cc1cc(Cl)ccc1O[C@H](C)C(=O)O please.
OUT: N

IN: Next: BrCC(Br)c1ccccc1 (stereo unspecified)
OUT: N

IN: Follow-up entry: CC(C)C(=O)Cl
OUT: N

IN: Next molecule: CS(=O)(=O)c1ccc(C(=O)C2C(=O)CCCC2=O)c([N+](=O)[O-])c1
OUT: N

IN: What do you have for CCc1ccccc1C ?
OUT: N

IN: Param item: CC(=[OH+])/C=C(/C)[O-].CC(=[OH+])/C=C(\C)[O-].CC(=[OH+])/C=C(\C)[O-].[Al]
OUT: N

IN: Record: CCOCCOC(C)=O
OUT: N

IN: Similarly, CN(C)C(=S)S ?
OUT: Y

IN: Now consider CCCCCCCCCCCCCC[P+](CCCCCC)(CCCCCC)CCCCCC (tested in a mixture with another compound) .
OUT: Y

IN: Moving on to COc1ccc([N+](=O)[O-])cc1O
OUT: N

IN: Entry CCCCCCCCCCCCCCCC[n+]1ccccc1 please
OUT: Y

IN: Follow-up entry: O=C(Nc1ccc2[nH]ccc2c1)c1cc2cc(F)ccc2n1Cc1cccc(F)c1
OUT: Y

----------
Assay: qHTS RealTime-Glo MT Cell Viability Assay in HEK293 cells - 32 hour (AID 1224868); further: nearly all actives have a fitted effect of over 50% in size
Settings: RealTime-Glo luminescence; series mostly up to 76.8 µM
Source text: National Center for Advancing Translational Sciences [NCATS] NIH Chemical Genomics Center [NCGC] U.S. Environmental Protection Agency [EPA] National Institutes of Environmental Health Sciences [NIEHS] National Toxicology Program [NTP] U.S. Food and Drug Administration [FDA] Measure of cell viability is critical in the cell-base assay. Analysis of cell viability is necessary for the characterization of cell responses to cytotoxic drugs and environmental stress. […]
Results filed as inconclusive are left out. The source made the active and inactive calls. Calls come from the whole dose curve; as a rule, active = well fitted cell-killing curve with a large enough effect in the repeat runs; inconclusive = weak or mixed curves, or effect the other way; inactive = flat fitted curve, though single readings scatter.
Can you answer with just one of these options? 1.0 = active, 0.0 = inactive

IN: I'd appreciate the recorded outcome for Cc1cccc(OP(=O)(Oc2cccc(C)c2)Oc2cccc(C)c2)c1 from this test.
OUT: 0.0

IN: Subsequent entry: CC(C)(COCC1CO1)COCC1CO1 (stereo unspecified)
OUT: 0.0

IN: Next compound: C=CC(=O)OCC(COC(=O)C=C)(COC(=O)C=C)COC(=O)C=C
OUT: 1.0

IN: Now consider CC(Cc1ccc(C(C)(C)C)cc1)CN1C[C@@H](C)O[C@@H](C)C1 (stereo partly specified) and answer again.
OUT: 0.0

IN: Now the compound CCc1ccccc1C
OUT: 0.0

IN: Moving on to the next compound: CC(=O)O[C@H]1CC[C@@]2(C)C(=CC[C@@H]3[C@@H]2CC[C@]2(C)C(=O)CC[C@@H]32)C1
OUT: 1.0

IN: Param item: CCOP(=S)(OCC)SCCS(=O)(=O)CC
OUT: 0.0

IN: Now consider C[C@H]1CC[C@@H]2[C@@H](C)[C@H]3[C@H](C[C@H]4[C@@H]5CC=C6CC(O[C@@H]7O[C@H](CO)[C@H](O)[C@H](O[C@@H]8O[C@H](CO)[C@@H](O)[C@H](O)[C@H]8O)[C@H]7O[C@H]7O[C@@H](C)[C@H](O)[C@@H](O)[C@H]7O)CC[C@]6(C)[C@H]5CC[C@]34C)N2C1 (stereo partly specified) .
OUT: 1.0

IN: Similarly, CC(C)OS(C)(=O)=O ?
OUT: 0.0

IN: Also O=C(Nc1ccc2[nH]ccc2c1)c1cc2cc(F)ccc2n1Cc1cccc(F)c1 ?
OUT: 0.0

IN: What about CC(C)(C)C(O)C(Oc1ccc(-c2ccccc2)cc1)n1cncn1 (stereo unspecified) ?
OUT: 1.0
